Reported pKd is given for each of the following binders.
TESTED ON: T1, Recombinant soluble E protein (0.8E-His) from DENV-1 (DENV-1, UniProt P27909 281-675)
T1 construct: also called DENV-1 E protein; DV1
pKd: −log10 of the molar value.

BINDER	pKd
DG_3CH1049-SG182/3CL668-SK1 (antibody, V domains shown) VH: QVQLVQSGAEVKKPGASVKVSCKASGYTFTSYYMHWVRQAPGQGLEWMGVINPRGGSRRSAQKFQGRVTMTRDTSTSTVYMELSSLRSEDTAVYYCARGGEALFYDSYTTPFDGGSWWFDPWGQGSLVTVSS VL: DIQLTQSPSSLSASVGDRVTITCQASQDIRKYLNWYQQKPGKAPKLLIYDASNLKTGVPSRFSGSGSGTDFTLTISSLQPEDVATYYCQQFEDLPITFGQGTRLQIKR	8.77
DG_3CH1046-SG182/3CL119-SK1 (antibody, V domains shown) VH: QVQLVQSGAEVKKPGASVKVSCKASGYTFTSYYMHWVRQAPGQGLEWMGVINPRGGSRRSAQKFQGRVTMTRDTSTSTVYMELSSLRSEDTAVYYCARGGRALFYDSYTTPFDGGSWWFDPWGQGSLVTVSS VL: DIQLTQSPSSLSASVGDRVTFTCQASQEIRKYLNWYQQKPGKAPKLLIYDASNLKTGVPSRFSGSGSGTDFTFTISSLQPEDVATYYCQQFDDLPITFGQGTRLQIKR	8.82
DG_3CH1000-SG182/3CL633-SK1 (antibody, V domains shown) VH: QVQLVQSGPDVEKPGASVKVSCKASGYTFTSYYMHWVRQAPGQGLEWMGVINPRGGSRRSAQKFQGRITMTRDTSTSTVYMELSSLRSEDTAVYYCARGGRALFYDSYTTPFDGGSWWFDPWGQGSLVTVSS VL: DIQLTQSPSSLSASVGDRVTITCQASQDIRKYLNWYQQKPGKAPKLLIYDASNLKTGVPSRFSGSGSGTDFTLTISSLQPEDVATYYCQQFDDLPITFGQGTRLQIKR	8.75
DG_3CH1046-SG182/3CL666-SK1 (antibody, V domains shown) VH: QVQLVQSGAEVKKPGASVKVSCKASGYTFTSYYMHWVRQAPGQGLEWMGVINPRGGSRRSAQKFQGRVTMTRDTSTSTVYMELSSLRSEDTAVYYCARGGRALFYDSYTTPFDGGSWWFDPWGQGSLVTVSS VL: DIQLTQSPSSLSASVGDRVTITCQASQEIRKYLNWYQQKPGKAPKLLIYDASNLKTGVPSRFSGSGSGTDFTLTISSLQPEDVATYYCQQFDDLPITFGQGTRLQIKR	8.82
DG_3CH1046-SG182/3CL-SK1 (antibody, V domains shown) VH: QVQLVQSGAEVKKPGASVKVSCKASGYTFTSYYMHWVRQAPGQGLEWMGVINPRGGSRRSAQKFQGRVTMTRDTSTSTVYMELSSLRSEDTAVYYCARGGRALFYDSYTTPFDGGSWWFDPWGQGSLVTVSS VL: DIQLTQSPSSLSASVGDRVTFTCQASQDIRKYLNWYQQKPGKAPKLLIYDASNLKTGVPSRFSGSGSGTDFTFTISSLQPEDVATYYCQQFDDLPITFGQGTRLQIKR	8.72
